Tested on: bulrush (Scirpus juncoides Roxb.)
Procedure summary: Test Example 1: herbicidal effect on paddy field weeds before emergence
Assay type: in vivo
Experimental parameters: Dosage 5 kg/ha
Measurement kind: Pre-emergence treatment Bulrush (herbicidal effect)

>>> result("CCCNC(=O)c1nc2ccccc2nc1C(=O)Nc1cccc(Cl)c1C [compound 1318]")
"4 (Weed-killing rate is 90-99%.)"
>>> result("CCCNC(=O)c1nc2cscc2cc1C(=O)Nc1c(CC)ccc(Cl)c1CC [compound 836]")
"5 (Weed-killing rate is 100%.)"
>>> result("CCCNC(=O)c1nc2c(cc1C(=O)Nc1c(CC)ccc(Cl)c1CC)nc(C)n2C [compound 1294]")
"5 (Weed-killing rate is 100%.)"
>>> result("CCCNC(=O)c1nc2c(cc1C(=O)Nc1c(CC)ccc(Cl)c1CC)COCC2 [Compound No. 462]")
"5 (Weed-killing rate is 100%.)"
>>> result("CCNC(=O)c1nc2c(cnn2C)cc1C(=O)Nc1c(CC)ccc(Cl)c1CC [compound 1087]")
"5 (Weed-killing rate is 100%.)"

[Q] Which Pre-emergence treatment Bulrush (herbicidal effect) value is on record for CCCNC(=O)c1nc2ccn(C)c2cc1C(=O)Nc1c(CC)ccc(Cl)c1CC [compound 907] ?
[A] 5 (Weed-killing rate is 100%.)

[Q] Same again, this time with Cc1c(Cl)cccc1NC(=O)c1cc2c(C)noc2nc1C(=O)NC1CCCC1 [compound 1085]
[A] 5 (Weed-killing rate is 100%.)

[Q] Follow-up entry: CCc1ccc(Cl)c(CC)c1NC(=O)c1cc2cc3c(cc2nc1C(=O)NCC(C)C)OCO3 [compound 339]
[A] 3 (Weed-killing rate is 70-89%.)

[Q] One more molecule: CCCNC(=O)c1nc2sccc2cc1C(=O)Nc1c(CC)ccc(Cl)c1CC [compound 799]
[A] 5 (Weed-killing rate is 100%.)

[Q] Again, but for CCNC(=O)c1nc2ccsc2cc1C(=O)Nc1c(CC)ccc(Cl)c1CC [compound 870]
[A] 5 (Weed-killing rate is 100%.)

[Q] Subsequent entry: CCc1ccc(Cl)c(CC)c1NC(=O)c1cc2c(nc1C(=O)NC1CCCC1)COCC2 [compound 447]
[A] 5 (Weed-killing rate is 100%.)

[Q] Next up: CCNC(=O)c1nc2ccccc2cc1C(=O)Nc1c(CC)ccc(Cl)c1CC [359-2]
[A] 5 (Weed-killing rate is 100%.)

[Q] Subsequent entry: CCCNC(=O)c1nc2cc3c(cc2cc1C(=O)Nc1c(CC)ccc(Cl)c1CC)OCO3 [compound 334]
[A] 4 (Weed-killing rate is 90-99%.)

[Q] Another molecule: CCCNC(=O)c1nc2nc(C)n(C)c2cc1C(=O)Nc1c(CC)ccc(Cl)c1CC [compound 1233]
[A] 5 (Weed-killing rate is 100%.)

[Q] Try the molecule CCc1ccc(Cl)c(CC)c1NC(=O)c1cc2c(nc1C(=O)NC1CCCC1)OCCC2 [compound 423]
[A] 5 (Weed-killing rate is 100%.)

[Q] Moving on to the next molecule: Cc1c(Cl)cccc1NC(=O)c1cc2sccc2nc1C(=O)NC1CCCC1 [compound 892]
[A] 5 (Weed-killing rate is 100%.)

[Q] Follow-up entry: CCCNC(=O)c1nc2ccc(OC)cc2cc1C(=O)Nc1c(CC)ccc(Cl)c1CC [compound 290]
[A] 5 (Weed-killing rate is 100%.)
